Test system: IL-17A-induced G-CSF production in human normal keratinocytes (NHK)
Assay Info: NHK Assay: IL-17A-induced G-CSF production in human normal keratinocytes
Format: cell-based
Measurement Setup: IL-17A 5 ng/mL, 24 h, 5% FBS, simple average if tested more than once
Experimental: IL-17A acts directly on keratinocytes through binding to dimeric receptor IL-17RA/RC and drives the production of a number of inflammatory mediators known to be elevated in psoriasis lesional tissue. IL-17A small molecule inhibitors that block the IL-17A to interact with IL-17R would inhibit the IL-17A signaling in its targeted cells such as keratinocytes. The compound functional activity is evaluated for its impact on IL-17A-induced G-CSF production in human normal keratinocytes (NHK). […]
Readout Type: IC50

Compound	Observed
Cc1c(C(=O)N[C@H](c2cn3ccc(C(NC(=O)CCC(F)(F)F)C4CC4)nc3n2)C2CCC(F)(F)CC2)cnn1CCC(F)(F)F (single isomer, unassigned) [Example 38]	930 nM
CC(CC(=O)N[C@H](c1ccn2cc([C@@H](NC(=O)c3conc3CCC(F)(F)F)C3CCC(F)(F)CC3)nc2n1)C1CC1)C(F)(F)F (single isomer, unassigned) [Example 7]	880 nM
CC(C)n1nccc1C(=O)N[C@H](c1cn2ccc(C(NC(=O)CCC(F)(F)F)C3CC3)nc2n1)C1CCC(F)(F)CC1 (single isomer, unassigned) [Example 47]	120 nM
